Target: ZAP70 (Homo sapiens, UniProt P43403)
Sequence (P43403 1-619): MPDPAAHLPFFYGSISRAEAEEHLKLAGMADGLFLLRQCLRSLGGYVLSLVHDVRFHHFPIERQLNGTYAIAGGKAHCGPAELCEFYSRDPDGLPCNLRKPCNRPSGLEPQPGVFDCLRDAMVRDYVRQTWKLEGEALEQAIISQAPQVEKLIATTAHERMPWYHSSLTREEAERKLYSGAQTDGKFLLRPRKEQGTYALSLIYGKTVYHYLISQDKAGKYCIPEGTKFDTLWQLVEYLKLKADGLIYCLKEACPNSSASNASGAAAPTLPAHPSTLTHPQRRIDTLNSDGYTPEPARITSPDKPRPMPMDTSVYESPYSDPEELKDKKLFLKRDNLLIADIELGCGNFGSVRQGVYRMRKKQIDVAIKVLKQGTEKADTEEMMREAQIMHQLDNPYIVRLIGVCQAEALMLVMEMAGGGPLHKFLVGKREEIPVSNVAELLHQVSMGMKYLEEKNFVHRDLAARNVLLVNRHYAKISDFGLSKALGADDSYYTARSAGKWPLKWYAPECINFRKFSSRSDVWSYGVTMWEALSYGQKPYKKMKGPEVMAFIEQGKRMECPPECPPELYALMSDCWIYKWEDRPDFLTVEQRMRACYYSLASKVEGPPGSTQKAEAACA
Assay: Kinase profiling ZAP70
Format: biochemical
Settings: 100 micromolar inhibitor concentration; 100 is no change; read-out: residual kinase activity, ZAP70
Listing: remaining activity at 100 µM of selected compounds
Field format: number, assumed %, no unit text.

Take a look at these entries with their results.
CC(=O)Nc1nc2cc(C(F)(F)F)ccc2s1; 115
CC(=O)Nc1nc2ccc(C#N)cc2s1; 118
CC(=O)Nc1nc2ccc(C(F)(F)F)cc2s1; 122
CC(=O)Nc1nc2cc(F)ccc2s1; 109
CC(=O)Nc1nc2ccc(O)cc2s1; 126

Turning now to a further compound:
Prompt line: remaining activity at 100 µM lookup needed for COc1ccc2sc(NC(C)=O)nc2c1 , thanks.
Response line: 98

* * *

biological target: p38a MAPK (Homo sapiens, UniProt Q16539); assay: Kinase profiling p38a MAPK; format: biochemical; settings: 100 micromolar inhibitor concentration; 100 is no change
Sequence (Q16539 whole entry): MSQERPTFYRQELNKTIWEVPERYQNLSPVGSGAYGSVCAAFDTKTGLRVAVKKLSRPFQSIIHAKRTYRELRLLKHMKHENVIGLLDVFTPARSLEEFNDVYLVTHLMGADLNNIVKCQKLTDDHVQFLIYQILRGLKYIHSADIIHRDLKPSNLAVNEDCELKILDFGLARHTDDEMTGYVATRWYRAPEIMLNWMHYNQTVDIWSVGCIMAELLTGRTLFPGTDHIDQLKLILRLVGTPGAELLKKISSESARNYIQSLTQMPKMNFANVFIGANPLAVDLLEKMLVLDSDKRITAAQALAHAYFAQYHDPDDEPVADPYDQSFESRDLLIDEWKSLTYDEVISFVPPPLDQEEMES
observation type: residual kinase activity, p38a MAPK
Enter the number alone.

Take a look at these entries with their results.
O=C(Nc1nc2cc(O)ccc2s1)c1cccnc1; 105
CC(=O)Nc1nc2cc(C)ccc2s1; 92
O=C(Nc1nc2ccc(F)cc2s1)c1ccccc1; 114

Prompt line: residual kinase activity, p38a MAPK lookup needed for O=C(Nc1nc2ccc(C(F)(F)F)cc2s1)c1ccccc1 , thanks.
Response line: 86

Prompt line: residual kinase activity, p38a MAPK lookup needed for CC(=O)Nc1ccc(C(=O)Nc2nc3ccc(O)cc3s2)cc1 , thanks.
Response line: 106

Prompt line: residual kinase activity, p38a MAPK lookup needed for CC(=O)Nc1ccccc1C(=O)Nc1nc2ccc(O)cc2s1 , thanks.
Response line: 96

Prompt line: residual kinase activity, p38a MAPK lookup needed for CC(=O)Nc1nc2ccc(F)cc2s1 , thanks.
Response line: 84

Prompt line: residual kinase activity, p38a MAPK lookup needed for O=C(Nc1nc2ccc(O)cc2s1)c1ccccc1 , thanks.
Response line: 74

Prompt line: residual kinase activity, p38a MAPK lookup needed for CC(=O)Nc1cccc(C(=O)Nc2nc3cc(O)ccc3s2)c1 , thanks.
Response line: 18

Prompt line: residual kinase activity, p38a MAPK lookup needed for CC(=O)Nc1ccc(C(=O)Nc2nc3cc(O)ccc3s2)cc1 , thanks.
Response line: 73

* * *

biological target: MARK1 (Homo sapiens); experiment: Kinase profiling MARK1; format: biochemical; settings: 100 micromolar inhibitor concentration; 100 is no change; read-out: residual kinase activity, MARK1
Sequence (Q9P0L2 whole entry, species assumed): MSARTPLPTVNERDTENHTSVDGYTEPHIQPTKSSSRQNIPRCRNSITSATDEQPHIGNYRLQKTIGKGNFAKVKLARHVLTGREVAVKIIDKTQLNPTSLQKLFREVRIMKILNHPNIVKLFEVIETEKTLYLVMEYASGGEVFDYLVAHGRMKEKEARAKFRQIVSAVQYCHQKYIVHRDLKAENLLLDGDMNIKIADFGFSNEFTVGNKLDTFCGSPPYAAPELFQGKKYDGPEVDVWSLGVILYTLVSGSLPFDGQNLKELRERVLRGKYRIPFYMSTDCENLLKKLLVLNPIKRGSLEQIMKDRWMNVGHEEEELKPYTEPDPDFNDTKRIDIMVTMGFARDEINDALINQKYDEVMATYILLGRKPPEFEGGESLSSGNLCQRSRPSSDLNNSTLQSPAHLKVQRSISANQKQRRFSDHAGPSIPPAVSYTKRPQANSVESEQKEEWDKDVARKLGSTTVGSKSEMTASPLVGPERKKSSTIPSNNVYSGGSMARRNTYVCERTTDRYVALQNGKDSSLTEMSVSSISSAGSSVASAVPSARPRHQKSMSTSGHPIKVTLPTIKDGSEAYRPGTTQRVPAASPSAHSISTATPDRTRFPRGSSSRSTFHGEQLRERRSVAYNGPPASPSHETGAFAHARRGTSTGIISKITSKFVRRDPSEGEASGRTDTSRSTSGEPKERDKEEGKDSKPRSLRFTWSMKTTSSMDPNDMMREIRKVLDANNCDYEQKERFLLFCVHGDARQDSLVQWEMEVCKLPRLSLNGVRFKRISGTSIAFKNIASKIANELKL
observation type: remaining activity at 100 µM (%)
Field format: number, assumed %, no unit text.

Take a look at these entries with their results.
CC(=O)Nc1nc2cc(C(F)(F)F)ccc2s1 [Compound 03-73]; 88
CC(=O)Nc1nc2ccc(C(F)(F)F)cc2s1 [Compound 01-90]; 90

Prompt line: remaining activity at 100 µM lookup needed for COc1ccc2sc(NC(C)=O)nc2c1 [Compound 03-21] , thanks.
Response line: 98

Prompt line: remaining activity at 100 µM lookup needed for CC(=O)Nc1nc2ccc(O)cc2s1 [Compound 01-71] , thanks.
Response line: 33

Prompt line: remaining activity at 100 µM lookup needed for CC(=O)Nc1nc2cc(F)ccc2s1 [Compound 03-77] , thanks.
Response line: 80

Prompt line: remaining activity at 100 µM lookup needed for CC(=O)Nc1nc2ccc(C#N)cc2s1 [Compound 01-94] , thanks.
Response line: 60

* * *

target: MELK (Homo sapiens); test: Kinase profiling MELK; assay type: biochemical; details: 100 micromolar inhibitor concentration; 100 is no change; read-out: residual kinase activity, MELK
Sequence (Q14680 whole entry, species assumed): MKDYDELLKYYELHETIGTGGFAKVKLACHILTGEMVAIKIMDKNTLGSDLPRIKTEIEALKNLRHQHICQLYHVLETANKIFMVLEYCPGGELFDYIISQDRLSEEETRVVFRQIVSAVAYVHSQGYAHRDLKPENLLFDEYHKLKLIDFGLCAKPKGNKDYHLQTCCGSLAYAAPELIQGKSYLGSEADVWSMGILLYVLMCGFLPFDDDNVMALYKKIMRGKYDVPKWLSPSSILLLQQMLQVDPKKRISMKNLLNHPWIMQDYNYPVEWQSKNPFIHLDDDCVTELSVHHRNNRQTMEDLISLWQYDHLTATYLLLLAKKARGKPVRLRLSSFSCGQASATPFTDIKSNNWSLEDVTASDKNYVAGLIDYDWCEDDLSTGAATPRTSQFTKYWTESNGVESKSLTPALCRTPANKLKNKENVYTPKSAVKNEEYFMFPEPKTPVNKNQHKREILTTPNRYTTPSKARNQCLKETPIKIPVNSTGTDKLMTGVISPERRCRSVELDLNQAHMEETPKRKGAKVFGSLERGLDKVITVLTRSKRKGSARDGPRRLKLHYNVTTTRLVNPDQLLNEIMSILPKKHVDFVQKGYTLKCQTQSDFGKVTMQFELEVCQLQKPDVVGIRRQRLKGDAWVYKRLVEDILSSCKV
observation type: remaining activity at 100 µM (%)
Field format: number, assumed %, no unit text.

Take a look at these entries with their results.
COc1ccc2sc(NC(C)=O)nc2c1 [Compound 03-21]; 44
CC(=O)Nc1nc2ccc(C#N)cc2s1 [Compound 01-94]; 34
CC(=O)Nc1nc2cc(F)ccc2s1 [Compound 03-77]; 67
CC(=O)Nc1nc2cc(C(F)(F)F)ccc2s1 [Compound 03-73]; 91
CC(=O)Nc1nc2ccc(O)cc2s1 [Compound 01-71]; 24

Prompt line: remaining activity at 100 µM lookup needed for CC(=O)Nc1nc2ccc(C(F)(F)F)cc2s1 [Compound 01-90] , thanks.
Response line: 49

* * *

Listing: remaining activity at 100 µM of selected molecules
target: MAPKAP-K2 (Homo sapiens, UniProt P49137); test: Kinase profiling MAPKAP-K2; format: biochemical; conditions: 100 micromolar inhibitor concentration; 100 is no change; read-out: residual kinase activity, MAPKAP-K2
Sequence (P49137 whole entry, species assumed): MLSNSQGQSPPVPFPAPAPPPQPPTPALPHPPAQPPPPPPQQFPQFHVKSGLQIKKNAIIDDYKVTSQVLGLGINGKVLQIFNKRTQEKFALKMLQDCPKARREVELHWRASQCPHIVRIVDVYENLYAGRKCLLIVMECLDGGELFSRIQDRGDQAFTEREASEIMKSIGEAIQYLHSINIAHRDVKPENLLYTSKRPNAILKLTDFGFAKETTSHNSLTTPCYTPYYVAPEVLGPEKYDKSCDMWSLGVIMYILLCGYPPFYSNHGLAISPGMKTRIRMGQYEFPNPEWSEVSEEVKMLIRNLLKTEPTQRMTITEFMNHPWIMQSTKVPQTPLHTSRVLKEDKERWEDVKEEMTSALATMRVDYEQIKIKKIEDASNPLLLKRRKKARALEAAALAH
Field format: number, assumed %, no unit text.

Take a look at these entries with their results.
CC(=O)Nc1nc2cc(F)ccc2s1 [Compound 03-77]; 106
COc1ccc2sc(NC(C)=O)nc2c1 [Compound 03-21]; 108
CC(=O)Nc1nc2cc(C(F)(F)F)ccc2s1 [Compound 03-73]; 114
CC(=O)Nc1nc2ccc(O)cc2s1 [Compound 01-71]; 46
CC(=O)Nc1nc2ccc(C#N)cc2s1 [Compound 01-94]; 65

Turning now to a further molecule:
Prompt line: remaining activity at 100 µM lookup needed for CC(=O)Nc1nc2ccc(C(F)(F)F)cc2s1 [Compound 01-90] , thanks.
Response line: 90

* * *

Listing: residual kinase activity, RSK1 of selected compounds
target: RSK1 (Homo sapiens, UniProt Q15418); test: Kinase profiling RSK1; type: biochemical; conditions: 100 micromolar inhibitor concentration; 100 is no change
Sequence (Q15418 whole entry, species assumed): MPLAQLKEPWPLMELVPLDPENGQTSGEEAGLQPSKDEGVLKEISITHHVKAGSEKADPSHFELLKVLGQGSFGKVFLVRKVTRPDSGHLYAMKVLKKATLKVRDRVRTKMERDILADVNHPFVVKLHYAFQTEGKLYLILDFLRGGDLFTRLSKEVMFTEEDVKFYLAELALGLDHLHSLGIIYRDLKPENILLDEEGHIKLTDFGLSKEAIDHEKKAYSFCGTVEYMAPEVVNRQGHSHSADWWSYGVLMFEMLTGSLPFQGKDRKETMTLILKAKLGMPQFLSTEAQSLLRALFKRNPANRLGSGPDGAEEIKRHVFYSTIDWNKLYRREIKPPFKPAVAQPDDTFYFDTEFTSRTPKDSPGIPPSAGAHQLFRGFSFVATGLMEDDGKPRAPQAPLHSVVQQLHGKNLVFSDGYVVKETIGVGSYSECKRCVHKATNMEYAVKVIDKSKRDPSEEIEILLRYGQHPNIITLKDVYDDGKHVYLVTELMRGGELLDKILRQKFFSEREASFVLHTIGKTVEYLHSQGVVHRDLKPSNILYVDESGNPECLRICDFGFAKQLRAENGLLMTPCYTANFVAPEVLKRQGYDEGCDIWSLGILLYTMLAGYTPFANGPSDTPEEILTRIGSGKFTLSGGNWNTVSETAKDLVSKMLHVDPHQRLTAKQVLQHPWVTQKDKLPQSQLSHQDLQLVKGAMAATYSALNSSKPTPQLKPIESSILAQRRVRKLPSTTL
Enter the number alone.

Take a look at these entries with their results.
COc1ccc2sc(NC(=O)c3cccc(C(N)=O)c3)nc2c1; 87
CC(=O)Nc1nc2ccc(F)cc2s1; 85
CC(=O)Nc1cccc(C(=O)Nc2nc3cc(O)ccc3s2)c1; 13

Prompt line: residual kinase activity, RSK1 lookup needed for O=C(Nc1nc2cc(O)ccc2s1)c1ccncc1 , thanks.
Response line: 83

* * *

molecular target: RIPK2 (Homo sapiens); test: Kinase profiling RIPK2; type: biochemical; settings: 100 micromolar inhibitor concentration; 100 is no change
Sequence (O43353 whole entry, species assumed): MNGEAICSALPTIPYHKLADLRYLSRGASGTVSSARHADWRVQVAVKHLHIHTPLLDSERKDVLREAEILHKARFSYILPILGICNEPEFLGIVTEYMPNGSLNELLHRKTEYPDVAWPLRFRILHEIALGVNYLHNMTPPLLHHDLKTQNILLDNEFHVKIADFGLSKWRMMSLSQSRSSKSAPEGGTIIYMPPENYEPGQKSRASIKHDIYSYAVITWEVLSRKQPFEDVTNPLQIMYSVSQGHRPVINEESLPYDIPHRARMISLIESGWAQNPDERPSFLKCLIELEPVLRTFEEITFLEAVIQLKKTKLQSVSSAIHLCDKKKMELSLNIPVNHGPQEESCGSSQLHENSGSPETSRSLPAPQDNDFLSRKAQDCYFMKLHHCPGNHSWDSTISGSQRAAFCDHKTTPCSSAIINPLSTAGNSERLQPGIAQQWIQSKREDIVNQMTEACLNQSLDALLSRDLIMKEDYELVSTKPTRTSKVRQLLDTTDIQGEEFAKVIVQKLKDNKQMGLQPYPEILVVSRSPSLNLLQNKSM
observation type: residual kinase activity, RIPK2
Enter the number alone.

Take a look at these entries with their results.
COc1ccc2sc(NC(=O)c3ccccc3)nc2c1 [Compound 03-95]; 40
O=C(Nc1nc2ccc(O)cc2s1)c1ccccn1 [Compound 03-12]; 29
COC(=O)c1cccc(C(=O)Nc2nc3ccc(F)cc3s2)c1 [Compound 03-110]; 48
O=C(Nc1nc2ccc(F)cc2s1)c1ccccc1 [Compound 03-92]; 69
O=C(Nc1nc2ccc(O)cc2s1)c1cccnc1 [Compound 08-44]; 21

Prompt line: residual kinase activity, RIPK2 lookup needed for COc1ccc2sc(NC(=O)c3cccc(C(N)=O)c3)nc2c1 [Compound 03-113] , thanks.
Response line: 99

Prompt line: residual kinase activity, RIPK2 lookup needed for O=C(Nc1nc2cc(O)ccc2s1)c1ccncc1 [Compound 03-11] , thanks.
Response line: 60

Prompt line: residual kinase activity, RIPK2 lookup needed for COC(=O)c1cccc(C(=O)Nc2nc3cc(OC)ccc3s2)c1 [Compound 03-108] , thanks.
Response line: 39

Prompt line: residual kinase activity, RIPK2 lookup needed for CC(=O)Nc1nc2ccc(F)cc2s1 [Compound 03-94] , thanks.
Response line: 38

* * *

Listing: residual kinase activity, IKKe of selected compounds
target: UniProt:Q14164; test: Kinase profiling IKKe; format: biochemical; settings: 100 micromolar inhibitor concentration; 100 is no change
Sequence (Q14164 whole entry, species assumed): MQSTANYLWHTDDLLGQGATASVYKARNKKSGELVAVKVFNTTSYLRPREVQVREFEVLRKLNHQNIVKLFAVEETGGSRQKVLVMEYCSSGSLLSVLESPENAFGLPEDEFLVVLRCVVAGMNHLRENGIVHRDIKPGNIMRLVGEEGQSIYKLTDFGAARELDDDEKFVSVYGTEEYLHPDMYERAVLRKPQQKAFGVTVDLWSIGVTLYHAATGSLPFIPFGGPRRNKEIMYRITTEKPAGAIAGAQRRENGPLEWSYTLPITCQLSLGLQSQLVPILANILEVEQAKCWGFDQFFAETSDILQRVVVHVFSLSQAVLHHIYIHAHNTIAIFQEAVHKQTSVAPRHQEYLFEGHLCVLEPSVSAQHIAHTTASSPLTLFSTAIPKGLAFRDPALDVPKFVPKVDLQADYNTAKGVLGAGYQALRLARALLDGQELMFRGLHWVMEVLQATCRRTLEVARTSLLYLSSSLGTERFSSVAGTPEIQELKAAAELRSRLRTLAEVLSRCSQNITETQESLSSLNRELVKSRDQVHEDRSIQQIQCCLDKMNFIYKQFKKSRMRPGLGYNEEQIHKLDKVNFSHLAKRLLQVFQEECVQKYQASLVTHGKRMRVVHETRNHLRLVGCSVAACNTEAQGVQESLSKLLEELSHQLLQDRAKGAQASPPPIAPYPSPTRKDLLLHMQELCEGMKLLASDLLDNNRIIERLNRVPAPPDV
Enter the number alone.

Prompt line: Value wanted: residual kinase activity, IKKe (UniProt:Q14164) of entry O=C(Nc1nc2cc(O)ccc2s1)c1ccccn1
Response line: 63

Prompt line: Value wanted: residual kinase activity, IKKe (UniProt:Q14164) of entry CC(=O)Nc1nc2ccccc2s1
Response line: 109

Prompt line: Value wanted: residual kinase activity, IKKe (UniProt:Q14164) of entry O=C(Nc1nc2cc(O)ccc2s1)c1ccncc1
Response line: 69
